The entries below come with measured pest or weed control at 140 g/ha values attached.
# System: Key Broadleaf Weed and Crop Species
# experiment: Post-emergent Test II herbicidal activity (Table 15)
# Format: in vivo
# protocol conditions: Chenopodium album, post-emergence, 336 h, lambsquarters (Chenopodium album), 140 g ai/ha, 14 d, read-out: Visual Growth Reduction (%) 14 Days After Application, CHEAL
# Source text: Post-emergent Test II: Seeds or nutlets of the desired test plant species were planted in Sun Gro Metro-Mix® 360 planting mixture, which typically has a pH of 6.0 to 6.8 and an organic matter content of about 30 percent, in plastic pots with a surface area of 64 square centimeters. When required to ensure good germination and healthy plants, a fungicide treatment and/or other chemical or physical treatment was applied. […]
endpoint label: pest or weed control at 140 g/ha

                                 cpd_smiles                    endpoint_label  value_observed
0   COC(=O)c1nc(-c2cccc3ccsc23)c(F)c(N)c1Cl  pest or weed control at 140 g/ha      95 to 100%
1     COC(=O)c1nc(-c2cc3occc3cc2F)nc(N)c1OC  pest or weed control at 140 g/ha      95 to 100%
2   COC(=O)c1nc(-c2ccc3sccc3c2)c(F)c(N)c1Cl  pest or weed control at 140 g/ha      95 to 100%
3   COC(=O)c1nc(-c2ccc3sccc3c2)c(C)c(N)c1Cl  pest or weed control at 140 g/ha       60 to 74%
4   COC(=O)c1nc(-c2ccc3ccsc3c2)c(C)c(N)c1Cl  pest or weed control at 140 g/ha       60 to 74%
5  COC(=O)c1nc(-c2ccc3cc[nH]c3c2)c(Cl)c(N)c1Cl  pest or weed control at 140 g/ha      95 to 100%
6  COC(=O)c1nc(-c2cccc3c2cnn3C)c(F)c(N)c1Cl  pest or weed control at 140 g/ha        0 to 29%
7       Nc1cc(-c2ccc3ccsc3c2)nc(C(=O)O)c1Cl  pest or weed control at 140 g/ha       85 to 94%
8   COC(=O)c1nc(-c2ccc3scnc3c2)c(F)c(N)c1Cl  pest or weed control at 140 g/ha      95 to 100%

---

# Tested on: Key Grass and Sedge Weeds as well as Grass Crops
# experiment: Post-emergent Test II herbicidal activity (Table 16)
# Assay type: in vivo
# protocol conditions: Echinochloa crus-galli, post-emergence, 336 h, barnyardgrass (Echinochloa crus-galli), 140 g ai/ha, 14 d, read-out: Visual Growth Reduction (%) 14 Days After Application, ECHCG
endpoint label: pest or weed control at 140 g/ha

>>> df
                                    molecule  value_observed
 0  COC(=O)c1nc(-c2cccc3occc23)c(F)c(N)c1Cl [Compound 2.15]       75 to 84%
 1  COC(=O)c1nc(-c2ccc3ccoc3c2F)nc(N)c1OC [Compound 2.13]      95 to 100%
 2  COC(=O)c1nc(-c2ccc(Cl)c3occc23)cc(N)c1Cl [Compound 2.19]        0 to 29%
 3  COC(=O)c1nc(-c2ccc3cc[nH]c3c2F)c(Cl)c(N)c1Cl [Compound 1.07]        0 to 29%
 4  COC(=O)c1nc(-c2ccc(Cl)c3occc23)c(F)c(N)c1Cl [Compound 2.16]        0 to 29%
 5  COC(=O)c1nc(-c2ccc3c(ccn3C)c2)c(F)c(N)c1Cl [Compound 1.03]       60 to 74%
 6  Nc1cc(-c2ccc3cc[nH]c3c2F)nc(C(=O)O)c1Cl [Compound 1.24]        0 to 29%
 7  COC(=O)c1nc(-c2ccc(Cl)c3[nH]ccc23)cc(N)c1Cl [Compound 1.44]        0 to 29%
 8  COC(=O)c1nc(-c2cc3[nH]ccc3cc2F)cc(N)c1Cl [Compound 1.25]        0 to 29%
 9  Nc1c(F)c(-c2cc3[nH]ccc3cc2F)nc(C(=O)O)c1Cl [Compound 1.14]        0 to 29%
10  COC(=O)c1nc(-c2ccc3occc3c2)nc(N)c1OC [Compound 2.06]      95 to 100%
11  COC(=O)c1nc(-c2ccc(Cl)c3ccoc23)cc(N)c1Cl [Compound 2.25]        0 to 29%
12  Nc1c(F)c(-c2cccc3occc23)nc(C(=O)O)c1Cl [Compound 2.17]       75 to 84%
13  Nc1c(F)c(-c2ccc(Cl)c3occc23)nc(C(=O)O)c1Cl [Compound 2.18]        0 to 29%
14  COC(=O)c1nc(-c2ccc3ccoc3c2F)c(F)c(N)c1Cl [Compound 2.09]       85 to 94%
15  Nc1c(F)c(-c2ccc3ccoc3c2)nc(C(=O)O)c1Cl [Compound 2.08]      95 to 100%
16  COC(=O)c1nc(-c2ccc3cc[nH]c3c2F)cc(N)c1Cl [Compound 1.23]       60 to 74%
17  COc1c(N)nc(-c2ccc3cc[nH]c3c2F)nc1C(=O)O [Compound 1.35]        0 to 29%
18  COC(=O)c1nc(-c2ccc3cc[nH]c3c2)c(Cl)c(N)c1Cl [Compound 1.05]       60 to 74%

---

# System: Key Broadleaf Weed and Crop Species
# experiment: Post-emergent Test II herbicidal activity (Table 15)
# Assay type: in vivo
# protocol conditions: Chenopodium album, post-emergence, 336 h, lambsquarters (Chenopodium album), 140 g ai/ha, 14 d, read-out: Visual Growth Reduction (%) 14 Days After Application, CHEAL
endpoint label: pest or weed control at 140 g/ha

In [3]: df
Out[3]:
                                  cpd_smiles                    endpoint_label  value_observed
 0  Nc1c(Cl)c(C(=O)O)nc(-c2ccc3cc[nH]c3c2)c1Cl  pest or weed control at 140 g/ha      95 to 100%
 1  COC(=O)c1nc(-c2ccc3cc[nH]c3c2F)nc(N)c1OC  pest or weed control at 140 g/ha       60 to 74%
 2  COC(=O)c1nc(-c2ccc3cc[nH]c3c2F)nc(N)c1Cl  pest or weed control at 140 g/ha      95 to 100%
 3  Cn1ccc2cc(-c3nc(C(=O)O)c(Cl)c(N)c3F)ccc21  pest or weed control at 140 g/ha        0 to 29%
 4  COC(=O)c1nc(-c2ccc(Cl)c3[nH]ccc23)c(F)c(N)c1Cl  pest or weed control at 140 g/ha       85 to 94%
 5  COC(=O)c1nc(-c2ccc3[nH]ncc3c2)c(F)c(N)c1Cl  pest or weed control at 140 g/ha       60 to 74%
 6  Cn1ncc2ccc(-c3nc(C(=O)O)c(Cl)c(N)c3F)cc21  pest or weed control at 140 g/ha      95 to 100%
 7    Nc1c(F)c(-c2ccc3scnc3c2)nc(C(=O)O)c1Cl  pest or weed control at 140 g/ha      95 to 100%
 8  COC(=O)c1nc(-c2ccc3ccoc3c2F)c(F)c(N)c1Cl  pest or weed control at 140 g/ha      95 to 100%
 9   COC(=O)c1nc(-c2ccc3cc[nH]c3c2)nc(N)c1OC  pest or weed control at 140 g/ha       75 to 84%
10    Nc1c(F)c(-c2ccc3occc3c2)nc(C(=O)O)c1Cl  pest or weed control at 140 g/ha      95 to 100%
11   COC(=O)c1nc(-c2cccc3occc23)c(F)c(N)c1Cl  pest or weed control at 140 g/ha      95 to 100%
12     COC(=O)c1nc(-c2cc3sccc3cc2F)cc(N)c1Cl  pest or weed control at 140 g/ha      95 to 100%
13  COC(=O)c1nc(-c2c(F)cc3cc[nH]c3c2F)cc(N)c1Cl  pest or weed control at 140 g/ha       85 to 94%
14  COC(=O)c1nc(-c2ccc3cc[nH]c3c2)c(C)c(N)c1Cl  pest or weed control at 140 g/ha       60 to 74%
15       COc1c(N)nc(-c2ccc3ccsc3c2)nc1C(=O)O  pest or weed control at 140 g/ha      95 to 100%
16   Nc1cc(-c2cc3[nH]ccc3cc2F)nc(C(=O)O)c1Cl  pest or weed control at 140 g/ha       30 to 44%
17   COc1c(N)nc(-c2cc3[nH]ccc3cc2F)nc1C(=O)O  pest or weed control at 140 g/ha        0 to 29%
18   Nc1cc(-c2ccc3cc[nH]c3c2F)nc(C(=O)O)c1Cl  pest or weed control at 140 g/ha      95 to 100%
